Measured cell viability, listed per entry for reference.
tested on: NOMO1; test: cell viability relative to DMSO control; higher = less cytotoxic; conditions: HPLM + 10% dialyzed FBS; 48 h; 0.0632 µM
Numbers only; they are read as %.

Consider the reported cell viability for these compounds:
C[C@H](NCc1ccc(OCc2cccc(F)c2)cc1)C(N)=O: 116
Oc1c(Cl)cc(Cl)c2cccnc12: 97.4
CC(C)(Sc1ccc(CCN(CCCCC2CCCCC2)C(=O)NC2CCCCC2)cc1)C(=O)O: 109
O=C(NCc1ccccc1)c1csc(Nc2ccncn2)n1: 121
CCN(CC)CCCC(C)Nc1nc(C)cc(Nc2ccc3nc(C)cc(N)c3c2)n1 (stereo not given): 108
OCCN(CCO)c1nc(N2CCCCC2)c2nc(N(CCO)CCO)nc(N3CCCCC3)c2n1: 115
NCCc1ccc(O)c(O)c1: 131
CN(C)[C@@H](CCOc1cccc2ccccc12)c1ccccc1: 124
COc1cc(Cl)cn2c(-c3cccc(NC4CNC4)n3)cnc12: 152
COc1ccc2[nH]cc(CCNC(C)=O)c2c1: 114

INPUT: What value of measured cell viability is listed for C[C@H](Cc1ccc(O)c(O)c1)[C@@H](C)Cc1ccc(O)c(O)c1 ?
OUTPUT: 126

INPUT: I am curious: what cell viability value has been reported for C=CC(=O)Nc1ccc2ncnc(Nc3ccc(OCc4cccc(F)c4)c(Cl)c3)c2c1 ?
OUTPUT: 105
